System: KM-20L2
Assay: NCI tumour cell line growth inhibition, 48 h
The source made the active and inactive calls. Rule as the data show it: active = GI50 up to about 1.1 µM and inactive = higher.

{"compound": "CC1CCC2(CC1)NN=c1s/c(=C\\c3ccc(O)cc3)c(=O)n1N2 (stereo not drawn)", "GI50": "> 100 µM (inactive)"}
{"compound": "COC[C@@H]1[C@H]2OC(C)(C)O[C@H]2C(=O)N1C(=O)c1ccc(OC)cc1", "GI50": "> 100 µM (inactive)"}
{"compound": "CC(C)=CC1CC(=[N+]=[N-])C(=O)C1(C)C (stereo not drawn)", "GI50": "> 100 µM (inactive)"}

---

Below: a set of entries, each annotated with reported GI50.
Test system: MDA-MB-231
Test: NCI tumour cell line growth inhibition, 48 h
Activity calls are given as the source filed them. Rule as the data show it: active = GI50 up to about 1.1 µM and inactive = higher. Residues, ends and D or L forms follow the SMILES beside them. *: point of attachment. Boc = CC(C)(C)OC(=O)*; Bz = O=C(c1ccccc1)*

{"compound": "O=C1NN=C(O)C2C3c4ccccc4C(c4ccccc43)C12 (stereo not given)", "GI50": "> 100 µM (inactive)"}
{"compound": "CC(C)Oc1c(-c2c(OC(C)C)c(=O)c2=O)c(=O)c1=O", "GI50": "> 36.7 µM (inactive)"}
{"compound": "O=C(N/N=C/c1ccc(O)cc1)NNCCO", "GI50": "> 100 µM (inactive)"}
{"compound": "O=C1CS(=O)(=O)C(c2cccc(Oc3ccccc3)c2)N1c1ccccc1 (stereo not given)", "GI50": "19.9 µM (inactive)"}
{"compound": "COc1ccc2c(c1)C1OCCNC1CC2 (stereo not given)", "GI50": "> 100 µM (inactive)"}
{"compound": "COC(=O)C1=C(O)C(C(=O)OC)[C@@]2(O)[C@@H](C(=O)OC)C(c3ccc(OC(=O)/C(=C/c4ccccc4)c4ccccc4)cc3)C[C@@H]1[C@@H]2C(=O)OC (stereo not given in full)", "GI50": "23.9 µM (inactive)"}
{"compound": "O=C1c2ccc3cc(CCl)cc(O)c3c2C(=O)c2cccc(O)c21", "GI50": "1.08 µM (active)"}
{"compound": "Oc1ccc2ccccc2c1Cc1c(O)ccc2ccccc12", "GI50": "18.2 µM (inactive)"}
{"compound": "CSc1c(C(=O)Nc2ccc(C)cc2)c(N)nn1-c1ccccc1", "GI50": "40.6 µM (inactive)"}
{"compound": "c1cc2nnc1SCCSCCSCCSc1ccc(nn1)SCCSCCSCCS2", "GI50": "> 100 µM (inactive)"}
{"compound": "CN(CC(=O)O)Cc1oc(CO)cc(=O)c1O", "GI50": "> 100 µM (inactive)"}
{"compound": "NNC(=O)c1c(SCc2ccccc2)nc2c3ccccc3ccn12", "GI50": "29.4 µM (inactive)"}
{"compound": "Cc1c(N)nc(C2CC(=O)N2CC(N)C(N)=O)nc1C(=O)NC(C(=O)NC(C)C(O)C(C)C(=O)NC(C(=O)NCCc1nc(-c2nc(C(=O)NCCNCC(C)O)cs2)cs1)C(C)O)C(OC1OC(CO)C(O)C(O)C1OC1OC(CO)C(O)C(OC(N)=O)C1O)c1c[nH]cn1 (stereo not given)", "GI50": "> 50 µM (inactive)"}
{"compound": "COC(=O)c1ccccc1CC1Cc2ccc3c(c2C1=O)CCC3 (stereo not given)", "GI50": "46.2 µM (inactive)"}
{"compound": "CCOC(=O)[C@@]12C[C@](/C=C/OC)(O[Si](C)(C)C)[C@@]13c1cc(OC)c(OC)cc1CCN3C(=O)C2=O", "GI50": "> 100 µM (inactive)"}
{"compound": "O=C(c1ccccc1)c1c(-c2ccccc2)n(-c2ccccc2)[nH]c(=O)c1=O", "GI50": "20.2 µM (inactive)"}
{"compound": "Cc1nc(-c2cc3c(ccc4ccccc43)oc2=O)cc2c1c(=O)oc1ccc3ccccc3c12", "GI50": "> 100 µM (inactive)"}
{"compound": "CCN(CC)c1ccc(/C=C/c2ccnc3ccccc23)cc1", "GI50": "> 100 µM (inactive)"}
{"compound": "O=C(/C=C/c1ccccc1)c1ccccc1", "GI50": "> 10 µM (inactive)"}
{"compound": "Cc1cccc(-c2cc(=S)c3cc(N4CCCC4)ccc3[nH]2)c1", "GI50": "> 100 µM (inactive)"}
{"compound": "O=S(=O)(O)c1ccc(Nc2ccnc3ccccc23)cc1", "GI50": "> 100 µM (inactive)"}
{"compound": "CO[C@@H]1C[C@H]2[C@@H]3CC[C@H]([C@H](C)CO)[C@@]3(C)CC[C@@H]2[C@@]2(C)CC[C@H]3C[C@]312", "GI50": "31.6 µM (inactive)"}
{"compound": "Cc1cc(O)cc(O)c1/N=N/c1ccc([N+](=O)[O-])cc1", "GI50": "14.8 µM (inactive)"}
{"compound": "COc1ccc2c(c1)C(=O)CC1c3cnccc3C(=O)N21 (stereo not given)", "GI50": "> 100 µM (inactive)"}
{"compound": "CN1CCC/C1=N\\C#N", "GI50": "> 100 µM (inactive)"}
{"compound": "Brc1ccc2c([C@H]3CN[C@@H](c4c[nH]c5cc(Br)ccc45)CN3)c[nH]c2c1", "GI50": "1.8 µM (inactive)"}
{"compound": "CC(=O)Oc1ccn2nc(C)c(Cc3c(C)nn4ccc(OC(C)=O)cc34)c2c1", "GI50": "> 100 µM (inactive)"}
{"compound": "CN(CCNC(=O)c1c[nH]c2c1Cc1ccccc1-2)CCNC(=O)c1c[nH]c2c1Cc1ccccc1-2", "GI50": "28.6 µM (inactive)"}
{"compound": "CN(C)CCCNc1c2ccccc2nc2cccc([N+](=O)[O-])c12", "GI50": "< 0.001 µM (active)"}
{"compound": "O=C1c2ccccc2C(=O)c2c(Nc3cc4c5c(ccc6c7ccc8c9c(cc(Nc%10cccc%11c%10C(=O)c%10ccccc%10C%11=O)c(c3c56)c97)-c3ccccc3C8=O)C(=O)c3ccccc3-4)cccc21", "GI50": "31.6 µM (inactive)"}
{"compound": "O=S(=O)(SC1=NCCN1)c1cccc2ccccc12", "GI50": "22.1 µM (inactive)"}
{"compound": "CC1CCCCNC1=S (stereo not given)", "GI50": "> 10 µM (inactive)"}
{"compound": "N#Cc1ccc(Oc2nc3ccc(C(F)(F)F)cc3nc2-c2ccccc2)cc1", "GI50": "14.5 µM (inactive)"}
{"compound": "CC1(c2ccc(Cl)cc2)N=C(NCCO)c2ccccc21 (stereo not given)", "GI50": "19.1 µM (inactive)"}
{"compound": "O=C(C1OC1c1ccc([N+](=O)[O-])cc1)C12CC3CC(CC(C3)C1)C2 (stereo not given)", "GI50": "16.7 µM (inactive)"}
{"compound": "c1ccc2c(c1)/C(=N\\NC1=NCCN1)c1nc3ccccc3nc1-2", "GI50": "10.5 µM (inactive)"}
{"compound": "Cn1cnc2c1c(=O)n(CCNCCO)c(=O)n2C", "GI50": "> 100 µM (inactive)"}
{"compound": "CC(NC(=O)C(Cc1ccc(OC(=O)c2ccccc2)cc1)NC(=O)OC(C)(C)C)C(=O)NC(Cc1ccccc1)C(=O)NCC(N)=O (stereo not given) (Boc-Y(Bz)AFG-NH2; configuration not given here)", "GI50": "19.4 µM (inactive)"}
{"compound": "Cc1c(C#N)c2nnn(-c3ccc(Cl)cc3)c(=O)n2c1-c1ccccc1", "GI50": "0.102 µM (active)"}
{"compound": "O=C1c2ccccc2C(=O)c2c1oc1cc(O)c(Cl)cc21", "GI50": "12.8 µM (inactive)"}

---

Tested on: HCT-116
Experiment: NCI tumour cell line growth inhibition, 48 h
Active and inactive are the calls of the source. Cut-off read from the data, not from the text of the source: active = GI50 up to about 1.1 µM and inactive = higher.
Classes used: T = active, F = inactive

{"compound": "COc1ccc(S(=O)(=O)N/N=C/CN2C(=O)c3ccccc3C2=O)cc1OC", "label": "F"}
{"compound": "[O-]c1c2c(nn1-c1ccc(F)cc1)c1ccccc1c[n+]2Cc1ccccc1", "label": "F"}
{"compound": "CCOC(=O)C1=C(O)C2C3CC4C2C(O)=C(C(=O)OCC)C2C1C3C42 (stereo not given)", "label": "F"}
{"compound": "COc1cc2c3c(cc(Cl)nc3c1OC)C(=O)C(=O)N2", "label": "F"}
{"compound": "O=C(O)CNCP(=O)(O)O [GLYPHOSATE]", "label": "F"}
{"compound": "O=S1(=O)OCCCOS(=O)(=O)C1Br", "label": "F"}
{"compound": "S=C(N1CCN(c2ccccc2)CC1)N1CCN(c2ccccc2)CC1", "label": "F"}
{"compound": "Cn1/c(=N\\N=C2\\C=C3CCCCC3(C)CC2)sc2ccccc21 (stereo not given)", "label": "F"}
{"compound": "CCCC1CCC(=C2C(=O)CCC2=O)O1 (stereo not given)", "label": "F"}
{"compound": "C1CN(c2nc3c(nnc4nc(N5CCOCC5)sc43)s2)CCO1", "label": "F"}
{"compound": "CN(C)CCNc1ccc2c(=O)n(CCN(C)C)c(=O)n3c4ccccc4c(=O)c1c23", "label": "T"}
{"compound": "Cc1ccc2c(c1)CN1c3ccc(C)cc3CN2C1c1ccccc1O", "label": "F"}
{"compound": "O=C(N/N=C/c1ccc(O)cc1)NNCCO", "label": "F"}
{"compound": "O=C1c2scnc2-c2nccc3c2c1nc1ccccc13", "label": "T"}
{"compound": "O=c1nc2n(c3nsnc13)CCO2", "label": "F"}
{"compound": "CCCCCC(=O)N[C@@H](c1ccccc1)C(O)C(=O)OC1C[C@@]2(O)C(OC(=O)c3ccccc3)C3[C@](C)(C(=O)[C@H](O)C(=C1C)C2(C)C)C(OC1OCC(O)C(O)C1O)C[C@H]1OC[C@@]31OC(C)=O (stereo not given in full)", "label": "T"}
{"compound": "COc1ccc2c(c1)CC[C@@H]1[C@@H]2CC[C@]2(C)/C(=N/OCCN3CCCC3)CC[C@@H]12", "label": "F"}
{"compound": "SCCSCCCSCCS", "label": "F"}
{"compound": "c1ccc2c(c1)/C(=N\\NC1=NCCN1)c1nc3ccccc3nc1-2", "label": "T"}
{"compound": "Cc1c2c(OCC(O)CN3CCN(c4ccccc4)CC3)nn(C)c(=O)c2c(C)n1-c1ccccc1 (stereo not given)", "label": "F"}
{"compound": "CC(NC(=O)C(N)CC(=O)O)NC(=O)C1CCC1 (stereo not given)", "label": "F"}
{"compound": "O=C(C1OC1c1ccc([N+](=O)[O-])cc1)C12CC3CC(CC(C3)C1)C2 (stereo not given)", "label": "F"}
{"compound": "Cc1ccc(-c2c(C#N)c(O)n(NS(=O)(=O)c3ccccc3)c(=O)c2C#N)cc1", "label": "F"}
{"compound": "O=c1c2ccccc2nc(-c2cccc(Cl)c2)n1NC1OC(CO)C(O)C(O)C1O (stereo not given)", "label": "F"}
{"compound": "O=C(Nc1cccc([N+](=O)[O-])c1)c1nnn(-c2cccc([N+](=O)[O-])c2)c1O", "label": "F"}
{"compound": "C/C=C1/CN2CC[C@@H]3c4ccccc4N4[C@H](C(=O)OC)[C@H]1C[C@H]2[C@]34/C=C/C1=COC[C@@H]2[C@H]1C[C@H]1c3c(c4ccccc4n3C)C[C@@H]2N1C", "label": "F"}
{"compound": "CC(=O)OC1COC(N2C(=O)C(=O)c3c(C)cc(Cl)nc32)C(OC(C)=O)C1OC(C)=O (stereo not given)", "label": "F"}
{"compound": "COC1(C)CC2N(C(=O)c3ccccc3)N=C(c3ccccc3)CC2(C)O1 (stereo not given)", "label": "F"}
{"compound": "COc1ccc2c(c1)C1OCCNC1CC2 (stereo not given)", "label": "F"}
{"compound": "Cc1ccc(S(=O)(=O)NC(C(=O)O)C(C)C)cc1 (stereo not given)", "label": "F"}
{"compound": "CCOC(=O)/N=C(\\N)SCc1ccccc1", "label": "F"}
{"compound": "CC1CC(C)[C@H](O)C([C@H](O)CC2CC(=O)N(C)C(=O)C2)C1 (stereo not given in full)", "label": "F"}
{"compound": "CCSC(=O)N1c2ccc(OC)cc2C=CC1C#N (stereo not given)", "label": "T"}
{"compound": "CC(Oc1ccccc1)C(=O)NNC(=O)OC(C)(C)C (stereo not given)", "label": "F"}
{"compound": "O=c1[nH]c(-c2ccc([N+](=O)[O-])cc2)nc2ccc(Cl)cc12", "label": "F"}
